Property measured: melting point

Study these solved cases before continuing.
1) CC(=O)O[C@@H]1[C@H](OC(C)=O)[C@@H](CN2C(=O)c3ccccc3C2=O)O[C@H]1n1cnc2c(N)nc(Cl)nc21: 256 °C
2) CC(=O)O[C@@H]1[C@H](OC(C)=O)[C@@H](CN=[N+]=[N-])O[C@H]1n1cnc2c(N)nc(Cl)nc21: 75 to 77 °C
3) Nc1nc(Cl)c2ccn(C3O[C@H](CO)[C@@H](O)[C@H]3O)c2n1 (stereo partly shown): 172 to 173 °C

--- query ---
Input line: Recorded melting point for `CSC[C@H]1O[C@@H](n2cnc3c(N)nc(C#N)nc32)[C@H](O)[C@@H]1O` , please?
Output line: 184 to 185 °C

---

Experiment: In vitro cytotoxicity assay (L6 rat myoblast cells), Alamar blue
Type: cell-based
Settings: read-out: Cytotoxicity IC50 toward L6 mammalian cell line
Property measured: IC50

Input line: Recorded IC50 for CSC[C@H]1O[C@@H](n2cnc3c(N)nc(F)nc32)[C@H](O)[C@@H]1O [ACT-51] , please?
Output line: 0.584 µM

---

Test system: Leishmania donovani (MHOM/SD/62/IS-CL2D) axenic amastigotes
Assay: In vitro growth inhibition assay of L. donovani axenic amastigotes, CellTiter
Format: cell-based
Details: Leishmania donovani; axenic amastigotes; average of duplicate determinations; read-out: IC50 against L. donovani
Property measured: IC50 (nM)
Quick reminder: number only, in nM, skip the unit.

1) Nc1nc(Cl)c2ccn(C3O[C@H](CO)[C@@H](O)[C@H]3O)c2n1 (some centres unmarked): 60

--- query ---
Input line: Recorded IC50 for CCCCCCCCCCCCCCCCOP(=O)([O-])OCC[N+](C)(C)C [miltefosine, reference compound] , please?
Output line: 122
